tested on: MS2 coat protein; assay: apparent KD of MS2 coat protein; designed switch direction (-1 OFF switch, 1 ON switch): -1; higher = weaker reporter binding; settings: Eterna round: R95; input ligand: microRNA oligo, concentration not stated
We'd kindly ask you to apply these apparent KD of MS2 coat protein classes: Low (below 30 nM), Medium (30 nM to below 100 nM), High (100 nM or more)

Past entries and their recorded results:
>>> class_label("AAUAGCAAGCAAGAUCCUAACAUGAGGAUCACCCAUGUGCUCGUCUUGUAAAGUACUAUCACGAAAGUGAUAGUACA [Sensor 3, v1 - 49] (puzzle: Sensor v3, turn-off variant 1)")
"High"
>>> class_label("CAAAACUGAGGAUAUACAUGAGGAUCACCCAUGUCCAAGGUCCUGGGCGGAUGCUGCUGUAGAAGGCGGAAAGA [Diatsobi] (puzzle: Exclusion 3)")
"Low"
>>> class_label("GGUGCUGGCGCGUCGGUGUUGGUGCAAUAAGCUUGUGAAACAUGAGGAUCACCCAUGUCCUCAUAGGCUCGUCUUGU [salish99_TOv2_r2_088] (puzzle: Sensor v3, turn-off variant 2)")
"High"

Let's switch to this sequence now.
IN: Which apparent KD of MS2 coat protein band matches AUAACAAGCUUUUUUUUCGUCGUAUAUGACGCUCGAGUCACAUGAGGAUCACCCAUGUCUUCCUGUUUGAUUGUUGA [JR_SV3TOV2_Sub057] (puzzle: Sensor v3, turn-off variant 2) ?
OUT: High

====

Property: apparent KD of MS2 coat protein; scope: individual sequences
system: MS2 coat protein; test: apparent KD of MS2 coat protein; designed switch direction (-1 OFF switch, 1 ON switch): -1; higher = weaker reporter binding; details: input ligand: FMN 200 uM

Previously resolved entries follow.
>>> recorded_result("GGCAUCAUCUGGUCCUGAUACAUGAGGAUCACCCAUGUUCUACUGUAGGUCGUAAGCAGCUUACCCUCUUAGGCACA [JR_Sensorv2_tov_Sub1249] (Eterna round: R96, puzzle: Sensor v2, turn-off variant)")
"380 nM"
>>> recorded_result("GAAAACGCAGAGGAUAUUUCAGAUCAAAGCUGCAAAGAAGGCUGCACAUGAGGAUCACCCAUGUGGUCUUAAAA [Mod of Quesina 2 - Jieux - Exclusion 6] (Eterna round: R97, puzzle: Exclusion 6)")
"337 nM"
>>> recorded_result("UGAUUGUUUACCAGGUUAUACAUGAGGAUCACCCAUGUAGAUCCUACGUGCGCGUUGUACCGCUCGUCUUAUUCCCA [Sensor-V1 #78] (Eterna round: R97, puzzle: Sensor, turn-off variant 1)")
"18.3 nM"
>>> recorded_result("UAUUAGCAAGUAAGAUCCCACAUGAGGAUCACCCAUGUGCUCGUCUUAUAAGGUACUGUGACGAUAGUCACGGUACC [Mat - Sensor, turn-off var - Eli Mod - D44] (Eterna round: R97, puzzle: Sensor, turn-off variant 1)")
"18.3 nM"
>>> recorded_result("UGUUGUCGCGCAGGAUAUGAGGAUCACCCAUAUGGAGGAUAUGAAAAGAAGGUUCUGAGGAUCACCCAGAAGGGCGGGACAACU [pwkr exNG2 2xF5 2xFMN.20] (Eterna round: R96, puzzle: Exclusion NG 2)")
"261 nM"
>>> recorded_result("AUGUUACAUGAGGAUCACCCAUGUGAGGAUAUGAGUCAGUCACGGUGACGUGGCUGACUCAGAAGGCACAAAGG [JL-ex1-4.38 salish99 mod] (Eterna round: R97, puzzle: Exclusion 1)")
"754 nM"
>>> recorded_result("UUGUUUGUAGUGAGGAUAUCGUUGAGGAAGAGGAUCGAGAAGGCACAUGAGGAUCACCCAUGUUAGAUGUGGUU [JR_BMOE4_Sub082] (Eterna round: R96, puzzle: Brourd's mod of Exclusion 4)")
"261 nM"
>>> recorded_result("AAGAGCGUAGGAUAUACAUGAGGAUCACCCAUGUGUGGAGGACCUGGCCACAUAAGGAGUAGAAGGGCGCAUCU [Eternabot (L2) Solution 92] (Eterna round: R97, puzzle: Exclusion 3)")
"110 nM"
>>> recorded_result("CUUAAUUGUCACAUGGGUGACAUGAGGAUCACCCAUGUCACAAGCUUUUUGCUCGUCUUAUAAUUAACCCAUGUGAC [Stov1/12-A3] (Eterna round: R97, puzzle: Sensor, turn-off variant 1)")
"13.7 nM"
>>> recorded_result("GCUGGUCGAGGAUAUACAAUCGUGCUUCGGCACGUAAGGUCACAUGAGGAUCACCCAUGUAGAAGGCGACCAGC [E2/2-A2] (Eterna round: R97, puzzle: Exclusion 2)")
"175 nM"

Note: attention shifts to another entry.
IN: Return apparent KD of MS2 coat protein for the following sequence: UAAGAGUGAGGAUAUGCGUCGCUGGUCCGGAUGGACGCAUGACAUGAGGAUCACCCAUGUAGAAGGCACAAAAC [Enxela Mod 5 - Jieux - Exclusion 2] (Eterna round: R97, puzzle: Exclusion 2)
OUT: 23.5 nM
